Origin of measurements: ChEMBL document CHEMBL5728023

Target: Short transient receptor potential channel 6 (Homo sapiens)
Sequence (Q9Y210 whole entry): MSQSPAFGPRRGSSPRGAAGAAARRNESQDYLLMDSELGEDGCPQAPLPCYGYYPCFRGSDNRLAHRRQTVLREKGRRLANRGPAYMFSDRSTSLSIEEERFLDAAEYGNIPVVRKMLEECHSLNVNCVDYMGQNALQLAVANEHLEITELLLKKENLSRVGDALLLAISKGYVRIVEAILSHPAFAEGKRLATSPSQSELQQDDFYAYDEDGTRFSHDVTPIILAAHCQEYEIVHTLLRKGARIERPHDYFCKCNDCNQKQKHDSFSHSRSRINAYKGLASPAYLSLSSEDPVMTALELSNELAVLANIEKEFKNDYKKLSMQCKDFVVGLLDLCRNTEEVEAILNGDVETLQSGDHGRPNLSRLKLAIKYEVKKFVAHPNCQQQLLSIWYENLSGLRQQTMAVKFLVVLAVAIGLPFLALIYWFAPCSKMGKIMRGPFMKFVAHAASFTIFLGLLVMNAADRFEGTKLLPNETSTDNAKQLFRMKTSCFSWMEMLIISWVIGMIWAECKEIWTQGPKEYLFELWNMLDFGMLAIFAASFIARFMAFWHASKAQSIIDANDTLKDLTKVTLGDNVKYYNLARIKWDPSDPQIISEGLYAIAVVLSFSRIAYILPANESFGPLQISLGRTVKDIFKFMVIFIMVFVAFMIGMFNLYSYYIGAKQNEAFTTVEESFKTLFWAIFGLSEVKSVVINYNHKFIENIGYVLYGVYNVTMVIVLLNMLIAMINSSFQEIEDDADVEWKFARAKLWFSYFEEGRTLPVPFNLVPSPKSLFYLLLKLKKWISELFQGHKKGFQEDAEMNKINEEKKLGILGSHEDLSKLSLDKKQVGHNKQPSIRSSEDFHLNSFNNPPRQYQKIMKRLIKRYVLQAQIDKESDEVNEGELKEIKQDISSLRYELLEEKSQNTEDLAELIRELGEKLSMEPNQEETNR
Experiment: High Throughput Screening Assay: This screening assay measures TRPC6 (transient receptor potential cation channel, subfamily C, member 6) ion channel activation via addition either of the commercially available DAG ligand analogue OAG (1-oleoyl-2-acetyl-sn-glycerol) or of the TRPC6 agonist 1-[1-(4,5,6,7,8-pentahydrocyclohepta[2,1-d]thiophen-2-ylcarbonyl)-4-piperidyl]-3-hydrobenzimidazol-2-one (GSK1702934A). The assay utilizes a FLIPR fluorescent calcium sensor 4-(6-Acetoxymethoxy-2,7-difluoro-3-oxo-9-xanthenyl)-4′-methyl-2,2′-(ethylenedioxy)dianiline-N,N,N′,N′-tetraacetic acid tetrakis(acetoxymethyl) ester (Fluo4/AM) membrane potential (FMP) dye from Molecular Devices, which is a voltage sensitive indicator with a fluorescent quencher. Changes (increases) in intracellular membrane calcium concentration potential as measured by the fluorescent signal increase during membrane depolarization provide a measurement of channel activity.The commercially available HEK293/TREx line (Invitrogen) was stably transfected with a TRPC6 construct and screened by conventional calcium imaging to find clones with TRPC6 expression following stimulation with 1 μg/ml tetracycline. These cells were maintained in the growth medium recommended by the manufacturer supplemented with 100 μg/ml hygromycin to promote retention of the TRPC6 construct. After growing to near confluency, cells were plated at a density of 35,000 cells/well in 384 well CellBind plates (Corning) in the presence of 1 μg/ml tetracycline, and allowed to grow for 20-30 hrs. A nearly confluent monolayer resulted. Growth media was removed from the wells and cells were then loaded with […] Fluo4/AM diluted in Ringer's Solution (6.5 g NaCl, 0.42 g KCl, 0.25 g CaCl2) and 0.2 g of sodium bicarbonate; pH 7.4) supplemented with 1% Pluronic F-127 to a final concentration of 0.5 μM and incubated for 60 min, at room temperature. Dye solution was then removed from the cells by inverting plates with a sharp flick, and replaced with 25 μl Ringer's. Following ˜0.5 hour for recovery from loading, cells were assayed using the Hamamatsu FDSS 6000 system, which permitted illumination at 485 nm. Frames were acquired at a rate of 0.2 Hz. During the assay, the plates were continuously vortexed, with pipette mixing of wells following addition of each reagent. For the screening assay, 26 μl of a diluted compound stock (at 50 μM) was added to each well for 2 minutes following the collection of a short (4 frame) baseline. 13 μl of agonist solution consisting of 125 nM GSK1702934A diluted in high-Ca2+Ringer solution (containing 90 mm Ca2+) was then added to each well, achieving a final concentration of 20 mm Ca2+ and 10 μM test compound. Data was collected for 3 minutes following addition of high Ca2+Ringer. The fluorescent ratio for each well was divided by the initial fluorescent intensity for that well and the overall response was determined by averaging the fluorescent ratio of the last 4 frames acquired during the experiment excepting the final frame. Negative and Positive controls were included on each plate. Negative controls wells consisted of HEK293/TREx TRPC6 cells exposed to assay buffer and agonist solution, but no test compound. Positive control consisted of wells consisted of HEK293/TREx TRPC6 cells exposed to 25 μM 3-[(2-chlorophenoxy)methyl]phenyl piperidyl ketone (Chembridge) diluted in Ringer's solution and agonist solution. […] Compounds were tested in triplicate at all concentrations. Standard software was used to fit IC50 curves.
Assay type: cell membranes
pIC50: −log10 of the molar value.
reported_endpoint: pIC50

compound="CCOc1cc(C(=O)N2C3CCC2CC(c2ccc(N)nn2)C3)ncc1Oc1ccc(F)cc1 (stereo unspecified)" reported_endpoint=pIC50 meas_value=5.68
